The entries below are paired with their reported TGI.
- Tested on: DMS 114 small cell lung
- ASSAY_PROCEDURE: NCI tumour cell line growth inhibition, 48 h
# unit: µM | format: bare number

Query string: Item under review: CCc1nc2ccccc2c(=O)n1/N=C(\N=Nc1ccc(Cl)cc1)c1ccc(N(C)C)cc1 . Reported TGI?
Result string: 47

Query string: Item under review: c1ccc([CH2][Sn]([CH2]c2ccccc2)([S]c2cccc3cccnc23)[S]c2cccc3cccnc23)cc1 . Reported TGI?
Result string: 0.378

Query string: Item under review: Cc1cc(O)c2c(c1)C[C@@H](O)C1=C2C(=O)c2c(O)ccc(OC3CC(O)C(OC4CC(OC5CCC(OC6CC(O)C(OC7CC(OC8CCC(O)C(C)O8)C(O)C(C)O7)C(C)O6)C(C)O5)C(O)C(C)O4)C(C)O3)c2C1=O (some centres undefined) . Reported TGI?
Result string: 0.0378

---

The entries below are paired with their reported TGI.
- Tested on: MALME-3M melanoma
- ASSAY_PROCEDURE: NCI tumour cell line growth inhibition, 48 h
# unit: µM | format: bare number

Some solved entries appear below for comparison.
| COMPOUND | TGI (µM) |
| --- | --- |
| N#CCCNCCN(CCN(C(=O)Nc1ccccc1)c1ccccc1)C(=O)Nc1ccccc1 | 54.8 |
| CCCCN(CCCC)C(=Nc1ccccc1)N(CCCC)CCCC | 22.5 |
| C(=N\Nc1ncc(-c2cc3cc4c(cc3o2)OCO4)s1)/c1c[nH]c2ccccc12 | 4.02 |

Now for the compound whose TGI we want.
Query string: Item under review: CCC12C=CCN3CC[C@]4(C(=C(C(=O)OC)[C@@H]1Nc1ncnc5c1ncn5C1OC(COC(C)=O)C(OC(C)=O)C1OC(C)=O)Nc1ccccc14)C32 (stereo not given in full) . Reported TGI?
Result string: 15.1

---

The entries below are paired with their reported TGI.
- Tested on: HCT-116 colon
- ASSAY_PROCEDURE: NCI tumour cell line growth inhibition, 48 h
# unit: µM | format: bare number

Some solved entries appear below for comparison.
| COMPOUND_SMILES | EXPERIMENTAL_READOUT | QUANTITATIVE_RESULT |
| --- | --- | --- |
| CCCCc1ccc2nc(NC(=O)OC)[nH]c2c1 | TGI | 13.5 |
| COc1c(O)c2ccccc2c2cc(O)ccc12 | TGI | 13.8 |
| C=C1C(=O)O[C@@H]2[C@@H]3O[C@@](C)(CC/C=C(\C)CCC[C@@H]2C)[C@H](O)C[C@@H]13 | TGI | 2.87 |
| COC12C=C/C(=C(/C(=O)OCc3ccncn3)C(=O)CCCCCCCCC3(OC)C=C/C(=C(/C(=O)OCc4ccncn4)C(=O)CCCCCCCC1)O3)O2 | TGI | 1.09 |

Now for the compound whose TGI we want.
Query string: Find the measured TGI: item COc1ccc(/C=C2/SC(=Nc3c(C)nn(-c4ccccc4)c3N)NC2=O)cc1 , target or system HCT-116 colon.
Result string: 12.5

---

- Test system: MDA-MB-231 breast
- ASSAY_PROCEDURE: NCI tumour cell line growth inhibition, 48 h
Output t for TGI not less than 20 µM; output f otherwise.

Query string: Please tell me: is the molecule COc1ccc(/C=C2/SC(=Nc3c(C)nn(-c4ccccc4)c3N)NC2=O)cc1 at or over 20 µM in terms of TGI?
Result string: t

Query string: Please tell me: is the molecule O=C1CCCC1C(=O)Nc1ccc2ccccc2c1 (stereo not drawn) at or over 20 µM in terms of TGI?
Result string: t

Query string: Please tell me: is the molecule O=C(NCC1Nc2ccncc2S(=O)(=O)N1)c1ccc(Br)cc1 (stereo not drawn) at or over 20 µM in terms of TGI?
Result string: t

Query string: Please tell me: is the molecule CCOC(=O)c1cnc2ccc(Cl)cc2c1NCCCN(C)C at or over 20 µM in terms of TGI?
Result string: t

Query string: Please tell me: is the molecule CCOC(=O)C1=CN=C2C(=O)N(c3ccccc3)N(C)C2(C)C1=N (stereo not drawn) at or over 20 µM in terms of TGI?
Result string: t

Query string: Please tell me: is the molecule C=C1C(=O)OC(CCCCCCCC)C1C(=O)O (stereo not drawn) at or over 20 µM in terms of TGI?
Result string: t

Query string: Please tell me: is the molecule COc1cc[c]([Hg][Cl])cc1 at or over 20 µM in terms of TGI?
Result string: f

Query string: Please tell me: is the molecule COc1ccccc1/C=C1\COc2ccc(O)c(O)c2C1=O at or over 20 µM in terms of TGI?
Result string: f

Query string: Please tell me: is the molecule CC(=O)N1N=C(c2c(O)ccc3ccccc23)CC1C(=O)c1ccco1 (stereo not drawn) at or over 20 µM in terms of TGI?
Result string: t

Query string: Please tell me: is the molecule CCOC(=O)c1cc2c(n1Cc1cccc(OC)c1)-c1oncc1CC2 at or over 20 µM in terms of TGI?
Result string: t

Query string: Please tell me: is the molecule CSC1=Nc2ccccc2-c2nc(-c3ccccc3)cc(-c3ccccc3)c2C1 at or over 20 µM in terms of TGI?
Result string: t

Query string: Please tell me: is the molecule CCNc1nc(N)c(C(=O)c2ccc(Cl)cc2)s1 at or over 20 µM in terms of TGI?
Result string: t

Query string: Please tell me: is the molecule COCn1c2ccc(OC(C)=O)cc2c2c(=O)oc(C)nc21 at or over 20 µM in terms of TGI?
Result string: t

Query string: Please tell me: is the molecule COc1ccc(NC(=O)c2ccc(NC3=C(Cl)C(=O)N(Cc4ccccc4)C3=O)cc2)cc1 at or over 20 µM in terms of TGI?
Result string: t

Query string: Please tell me: is the molecule O=C(CCCCCCc1nc2ccc(Br)cc2[nH]1)NO at or over 20 µM in terms of TGI?
Result string: t

Query string: Please tell me: is the molecule COc1ccc([C@H]2c3cc(OC)c(OC)cc3C=C(C=O)C2CO)cc1OC (stereo partly drawn) at or over 20 µM in terms of TGI?
Result string: t

---

- Test system: SR leukemia
- ASSAY_PROCEDURE: NCI tumour cell line growth inhibition, 48 h
EXPERIMENTAL_READOUT: TGI

Some solved entries appear below for comparison.
| COMPOUND | TGI |
| --- | --- |
| CC(C)(O)Cn1c(=O)c(Oc2ccc(F)cc2F)cc2cnc(NC3CCOCC3)nc21 | > 25 µM |
| O=C1CCCC1C(=O)Nc1ccc2ccccc2c1 (centres undefined) | > 100 µM |
| O=C(Cn1ccnc1[N+](=O)[O-])NCCO | > 100 µM |
| CSC1=Nc2ccccc2-c2nc(-c3ccccc3)cc(-c3ccccc3)c2C1 | > 100 µM |
| COc1ccc(NC(=O)c2ccc(NC3=C(Cl)C(=O)N(Cc4ccccc4)C3=O)cc2)cc1 | 3.61 µM |

Query string: Find the measured TGI: item N/C(=N\N=C\c1ccc2c(c1)OCO2)NO , target or system SR leukemia.
Result string: 31.7 µM

Query string: Find the measured TGI: item CCN1CCN(C(=O)[C@]23CC[C@@H](C)[C@H](C)[C@@H]2C2=CC[C@@H]4[C@@]5(C)C/C(=C/c6cccnc6)C(=O)C(C)(C)[C@@H]5CC[C@@]4(C)[C@]2(C)CC3)CC1 , target or system SR leukemia.
Result string: 7.09 µM

Query string: Find the measured TGI: item CN(Cc1c2ccccc2cc2ccccc12)S(=O)(=O)c1ccc(-c2c3nc(c(-c4ccc(S(=O)(=O)N(C)Cc5c6ccccc6cc6ccccc56)cc4)c4ccc([nH]4)c(-c4ccc(S(=O)(=O)N(C)Cc5c6ccccc6cc6ccccc56)cc4)c4nc(c(-c5ccc(S(=O)(=O)N(C)Cc6c7ccccc7cc7ccccc67)cc5)c5ccc2[nH]5)C=C4)C=C3)cc1 , target or system SR leukemia.
Result string: > 100 µM

Query string: Find the measured TGI: item COc1cc(-c2cc(-c3ccc(N(C)C)cc3)nc(N3CCC(O)CC3)c2C#N)cc(OC)c1OC , target or system SR leukemia.
Result string: 2.94 µM

Query string: Find the measured TGI: item COC(=O)C1=C(O)C(O)=C(C(=O)OC)CC1 , target or system SR leukemia.
Result string: > 100 µM

Query string: Find the measured TGI: item Oc1ccc2c(c1)-c1c(c3cc(O)ccc3n1CCN1CCOCC1)CC2 , target or system SR leukemia.
Result string: 61.8 µM

Query string: Find the measured TGI: item CCN(CC)CCn1c(=N)n(CC(O)c2ccc(Cl)c(Cl)c2)c2ccccc21 (centres undefined) , target or system SR leukemia.
Result string: 5.56 µM

Query string: Find the measured TGI: item CC(C)NC(=O)OCc1nnn2c1C(OC(=O)NC(C)C)CC2 (centres undefined) , target or system SR leukemia.
Result string: > 100 µM
